# System: large crabgrass
# measurement.description: Upland foliar application test (Test 3)
# Format: in vivo
# measurement.context: 30 g ai/a, foliar spray at 2-3 leaves, 30th day
Entries and their Herbicidal effects Large crabgrass

[
  {
    "compound": "COc1cc(OC)nc(Oc2ccccc2C=O)n1 [B, reference compound]",
    "Herbicidal effects Large crabgrass": "4 (6-10 (Severe damages))"
  },
  {
    "compound": "COc1cc(OC)nc(Oc2ccccc2C=NOCC=Cc2ccccc2Br)n1",
    "Herbicidal effects Large crabgrass": "4 (6-10 (Severe damages))"
  },
  {
    "compound": "COc1cccc(C=CCON=Cc2ccccc2Oc2nc(OC)cc(OC)n2)c1",
    "Herbicidal effects Large crabgrass": "5 (0-5 (Death))"
  },
  {
    "compound": "COc1cc(OC)nc(Oc2ccccc2C=NOCC=Cc2cccc(Cl)c2)n1",
    "Herbicidal effects Large crabgrass": "5 (0-5 (Death))"
  },
  {
    "compound": "COc1cc(OC)nc(Oc2ccccc2C=NOC(C)c2ccccc2)n1 (stereo not drawn)",
    "Herbicidal effects Large crabgrass": "4 (6-10 (Severe damages))"
  },
  {
    "compound": "CC=CCON=Cc1ccccc1Oc1nc(OC)cc(OC)n1",
    "Herbicidal effects Large crabgrass": "3 (11-40 (Medium damages))"
  },
  {
    "compound": "COc1cc(OC)nc(Oc2ccccc2C=NOCC=Cc2ccccc2C(F)(F)F)n1",
    "Herbicidal effects Large crabgrass": "5 (0-5 (Death))"
  },
  {
    "compound": "C#CCON=Cc1ccccc1Oc1nc(OC)cc(OC)n1",
    "Herbicidal effects Large crabgrass": "5 (0-5 (Death))"
  },
  {
    "compound": "COc1cc(OC)nc(Oc2ccccc2C=NOCC=Cc2ccc(Cl)cc2)n1",
    "Herbicidal effects Large crabgrass": "4 (6-10 (Severe damages))"
  },
  {
    "compound": "COc1cc(OC)nc(Oc2ccccc2C=NOCC=C(C)Cl)n1",
    "Herbicidal effects Large crabgrass": "4 (6-10 (Severe damages))"
  },
  {
    "compound": "COc1cc(OC)nc(Oc2ccccc2C=NOC2CCCCC2)n1",
    "Herbicidal effects Large crabgrass": "4 (6-10 (Severe damages))"
  },
  {
    "compound": "CCCC=CCON=Cc1ccccc1Oc1nc(OC)cc(OC)n1",
    "Herbicidal effects Large crabgrass": "5 (0-5 (Death))"
  },
  {
    "compound": "CCc1ccc(C=CCON=Cc2ccccc2Oc2nc(OC)cc(OC)n2)cc1",
    "Herbicidal effects Large crabgrass": "5 (0-5 (Death))"
  },
  {
    "compound": "COc1cc(OC)nc(Oc2ccccc2C=NOCc2ccc(Cl)cc2Cl)n1",
    "Herbicidal effects Large crabgrass": "3 (11-40 (Medium damages))"
  },
  {
    "compound": "COc1cc(OC)nc(Oc2ccccc2C=NOCC=Cc2cccc(C)c2)n1",
    "Herbicidal effects Large crabgrass": "4 (6-10 (Severe damages))"
  },
  {
    "compound": "COc1cc(OC)nc(Oc2ccccc2C=NOCc2cccc(C)c2)n1",
    "Herbicidal effects Large crabgrass": "5 (0-5 (Death))"
  },
  {
    "compound": "COc1cc(OC)nc(Oc2ccccc2C=NOCc2cccc3ccccc23)n1",
    "Herbicidal effects Large crabgrass": "5 (0-5 (Death))"
  },
  {
    "compound": "COc1cc(OC)nc(Oc2ccccc2C=NOCC=Cc2ccc(F)cc2)n1",
    "Herbicidal effects Large crabgrass": "4 (6-10 (Severe damages))"
  },
  {
    "compound": "COc1cc(OC)nc(Oc2ccccc2C=NOCC=Cc2ccc(C(F)(F)F)cc2)n1",
    "Herbicidal effects Large crabgrass": "5 (0-5 (Death))"
  },
  {
    "compound": "COc1cc(OC)nc(Oc2ccccc2C=NOCC=Cc2cccc(Cl)c2Cl)n1",
    "Herbicidal effects Large crabgrass": "5 (0-5 (Death))"
  },
  {
    "compound": "COc1cc(OC)nc(Oc2ccccc2C=NOCc2ccccc2Cl)n1",
    "Herbicidal effects Large crabgrass": "3 (11-40 (Medium damages))"
  },
  {
    "compound": "COc1cc(OC)nc(Oc2ccccc2C=NOCc2ccc(C)cc2)n1",
    "Herbicidal effects Large crabgrass": "3 (11-40 (Medium damages))"
  },
  {
    "compound": "COc1cc(OC)nc(Oc2ccccc2C=NO)n1",
    "Herbicidal effects Large crabgrass": "4 (6-10 (Severe damages))"
  },
  {
    "compound": "COc1cc(OC)nc(Oc2ccccc2C=NOCc2ccccc2)n1",
    "Herbicidal effects Large crabgrass": "4 (6-10 (Severe damages))"
  },
  {
    "compound": "COc1cc(OC)nc(Oc2ccccc2C=NOC(C)C)n1",
    "Herbicidal effects Large crabgrass": "3 (11-40 (Medium damages))"
  },
  {
    "compound": "C=CCON=Cc1ccccc1Oc1nc(OC)cc(OC)n1",
    "Herbicidal effects Large crabgrass": "3 (11-40 (Medium damages))"
  },
  {
    "compound": "COc1cc(OC)nc(Oc2ccccc2C=NOCC=Cc2ccc(C)cc2)n1",
    "Herbicidal effects Large crabgrass": "5 (0-5 (Death))"
  },
  {
    "compound": "C=CC(C)ON=Cc1ccccc1Oc1nc(OC)cc(OC)n1 (stereo not drawn)",
    "Herbicidal effects Large crabgrass": "5 (0-5 (Death))"
  },
  {
    "compound": "COc1cc(OC)nc(Oc2ccccc2C=NOCC=Cc2ccc(Cl)cc2Cl)n1",
    "Herbicidal effects Large crabgrass": "5 (0-5 (Death))"
  },
  {
    "compound": "COc1cc(OC)nc(Oc2ccccc2C=NOCC=CCl)n1",
    "Herbicidal effects Large crabgrass": "5 (0-5 (Death))"
  },
  {
    "compound": "COc1cc(OC)nc(Oc2ccccc2C=NOCc2ccc(Cl)c(Cl)c2)n1",
    "Herbicidal effects Large crabgrass": "3 (11-40 (Medium damages))"
  },
  {
    "compound": "CON=Cc1ccccc1Oc1nc(OC)cc(OC)n1",
    "Herbicidal effects Large crabgrass": "3 (11-40 (Medium damages))"
  },
  {
    "compound": "COc1cc(OC)nc(Oc2ccccc2C=NOCC=Cc2ccccc2Cl)n1",
    "Herbicidal effects Large crabgrass": "5 (0-5 (Death))"
  },
  {
    "compound": "C=C(Cl)CON=Cc1ccccc1Oc1nc(OC)cc(OC)n1",
    "Herbicidal effects Large crabgrass": "5 (0-5 (Death))"
  },
  {
    "compound": "COc1cc(OC)nc(Oc2ccccc2C=NOCC#Cc2ccccc2)n1",
    "Herbicidal effects Large crabgrass": "3 (11-40 (Medium damages))"
  },
  {
    "compound": "COc1cc(OC)nc(Oc2ccccc2C=NOCCc2ccccc2)n1",
    "Herbicidal effects Large crabgrass": "3 (11-40 (Medium damages))"
  },
  {
    "compound": "COc1cc(OC)nc(Oc2ccccc2C=NOCC=C(C)C)n1",
    "Herbicidal effects Large crabgrass": "5 (0-5 (Death))"
  },
  {
    "compound": "CC#CCON=Cc1ccccc1Oc1nc(OC)cc(OC)n1",
    "Herbicidal effects Large crabgrass": "5 (0-5 (Death))"
  },
  {
    "compound": "COc1cc(OC)nc(Oc2ccccc2C=NOCC=Cc2ccc(Cl)c(Cl)c2)n1",
    "Herbicidal effects Large crabgrass": "4 (6-10 (Severe damages))"
  }
]
